Values were extracted from patent US20240059691A1.

Record type: pIC50 measurement. Applies to: Human Factor XIIa (Homo sapiens (Human))
pIC50: −log10 of the molar value.
assay readout: pIC50

> print(dat)
                                    compound                             tested.target  assay.readout  assay.result
 1  CN1CCC(Oc2cc(CNc3ccc4c(N)nccc4c3)ccn2)CC1  Human Factor XIIa (Homo sapiens (Human))          pIC50  6.00 to 6.52
 2  CN1CCC(COc2ccc(CCc3ccc4c(N)nccc4c3)cn2)CC1  Human Factor XIIa (Homo sapiens (Human))          pIC50  6.00 to 6.52
 3  CN1CCC(CNc2ccc(CNc3ccc4cncc(Cl)c4c3)cn2)CC1  Human Factor XIIa (Homo sapiens (Human))          pIC50  4.00 to 4.40
 4  Cn1ccnc1CCCOc1cc(CNc2cccc3c(N)nccc23)ccn1  Human Factor XIIa (Homo sapiens (Human))          pIC50  6.00 to 6.52
 5  CN1CCN(c2cc(CNc3cccc4c(N)nccc34)ccn2)CC1  Human Factor XIIa (Homo sapiens (Human))          pIC50  4.40 to 5.00
 6  Cn1ccnc1CCCOc1ccc(CNc2ccc3c(N)nccc3c2)cn1  Human Factor XIIa (Homo sapiens (Human))          pIC50  6.00 to 6.52
 7  FC(F)(F)c1nnc2n1CCN(c1ccc(CNc3ccnc4[nH]c(Cl)cc34)cn1)C2  Human Factor XIIa (Homo sapiens (Human))          pIC50  6.00 to 6.52
 8  Cc1cc(NCc2ccnc(OCC3CCN(C)CC3)c2)cc2ccncc12  Human Factor XIIa (Homo sapiens (Human))          pIC50  5.52 to 6.00
 9  CC1c2nnc(C(F)(F)F)n2CCN1c1ccc(CNc2cccc3c(N)nccc23)cn1 (single isomer, unassigned)  Human Factor XIIa (Homo sapiens (Human))          pIC50  4.40 to 5.00
10  Nc1ncc(Cl)c2cc(NCc3ccnc(OCC4CCn5ccnc5C4)c3)ccc12 (single isomer, unassigned)  Human Factor XIIa (Homo sapiens (Human))          pIC50  6.52 to 7.00
11  Nc1nccc2c(NCc3ccc(N4CC5(CC(O)c6nccn65)C4)cc3)cccc12 (centres unmarked)  Human Factor XIIa (Homo sapiens (Human))          pIC50  5.00 to 5.52
12  CN1CCC(F)(COc2cc(CNc3ccc4c(N)nccc4c3)ccn2)CC1  Human Factor XIIa (Homo sapiens (Human))          pIC50  6.00 to 6.52
13  CN1CC2(CC(OCc3ccc(CNc4ccc5c(N)nccc5c4)c(F)c3)CS2)C1 (centres unmarked)  Human Factor XIIa (Homo sapiens (Human))          pIC50  6.00 to 6.52
14  Nc1nccc2c(NCc3ccnc(OC4CCn5ccnc5C4)c3)cccc12 (centres unmarked)  Human Factor XIIa (Homo sapiens (Human))          pIC50  5.52 to 6.00
15  CCN1CCC(COc2ccc(CNc3ccc4c(N)nccc4c3)cn2)CC1  Human Factor XIIa (Homo sapiens (Human))          pIC50  6.52 to 7.00
16  CN1CCN(CCc2cccc(CNc3ccc4c(N)nccc4c3)c2)CC1  Human Factor XIIa (Homo sapiens (Human))          pIC50  5.00 to 5.52
17  Nc1ncc(Cl)c2cc(NCc3ccnc(OCC4CCCn5ccnc54)c3)ccc12 (centres unmarked) [Example 4443]  Human Factor XIIa (Homo sapiens (Human))          pIC50  6.52 to 7.00
